Listed here are compounds together with their documented MIC.
Test system: Streptococcus pneumoniae
Assay: Effect on 32 ug/ml ciprofloxacin-selected penicillin-resistant Streptococcus pneumoniae 334 mutant after five passages assessed as susceptibility by agar dilution method
Type: functional

Would you please look over these solved cases?
O=C(O)c1cn(C2CC2)c2cc(N3CCNCC3)c(F)cc2c1=O	32 µg/mL
COc1c(N2C[C@@H]3CCCN[C@@H]3C2)c(F)cc2c(=O)c(C(=O)O)cn(C3CC3)c12	1 µg/mL

Reported MIC of N[C@@H]1CN(c2c(F)cc3c(=O)c(C(=O)O)cn(C4C[C@@H]4F)c3c2Cl)CC12CC2 (single isomer, unassigned) [SITAFLOXACIN ANHYDROUS] : 0.5 µg/mL

# compound Cc1c(N2C[C@@H](F)[C@@H](C3(N)CC3)C2)c(F)c(N)c2c(=O)c(C(=O)O)cn([C@@H]3C[C@@H]3F)c12 ; its MIC = 0.03 µg/mL
